The origin of these recorded values is patent US20060257938A1.

assay: Probe fluorescence ratio response to arachidonic acid relative to ADIFAB2; assay type: binding; conditions: arachidonic acid; response relative to ADIFAB2
# Lookup of reported DR/DR AA keyed by entry
Just the number.

molecule	test.value
17T, 72A (protein, listed as Rattus norvegicus, PEPTIDE (1)...(131) wild-type rat intestinal fatty acid binding protein) AFDGTWKVDRNENYEKTMEKMGINVVKRKLGAHDNLKLTITQEGNKFTVKESSNFRNIDVVFELGVDFAYSAADGTELTGTWTMEGNKLVGKFKRVDNGKELIAVREISGNELIQTYTYEGVEAKRIFKKE	0.50
31K2, 72A (protein, listed as Rattus norvegicus, PEPTIDE (1)...(131) wild-type rat intestinal fatty acid binding protein) AFDGTWKVDRNENYEKFMEKMGINVVKRKLKAHDNLKLTITQEGNKFTVKESSNFRNIDVVFELGVDFAYSAADGTELTGTWTMEGNKLVGKFKRVDNGKELIAVREISGNELIQTYTYEGVEAKRIFKKE	0.85
38H, 72A (protein, listed as Rattus norvegicus, PEPTIDE (1)...(131) wild-type rat intestinal fatty acid binding protein) AFDGTWKVDRNENYEKFMEKMGINVVKRKLGAHDNLKHTITQEGNKFTVKESSNFRNIDVVFELGVDFAYSAADGTELTGTWTMEGNKLVGKFKRVDNGKELIAVREISGNELIQTYTYEGVEAKRIFKKE	0.998
115N, 72A (protein, listed as Rattus norvegicus, PEPTIDE (1)...(131) wild-type rat intestinal fatty acid binding protein) AFDGTWKVDRNENYEKFMEKMGINVVKRKLGAHDNLKLTITQEGNKFTVKESSNFRNIDVVFELGVDFAYSAADGTELTGTWTMEGNKLVGKFKRVDNGKELIAVREISGNELINTYTYEGVEAKRIFKKE	0.918
55L, 72A (protein, listed as Rattus norvegicus, PEPTIDE (1)...(131) wild-type rat intestinal fatty acid binding protein) AFDGTWKVDRNENYEKFMEKMGINVVKRKLGAHDNLKLTITQEGNKFTVKESSNLRNIDVVFELGVDFAYSAADGTELTGTWTMEGNKLVGKFKRVDNGKELIAVREISGNELIQTYTYEGVEAKRIFKKE	0.863

Please turn your attention to the following entry.
[ask] Indicate its recorded DR/DR AA; the molecule in question is 104Y1, 72A (protein, listed as Rattus norvegicus, PEPTIDE (1)...(131) wild-type rat intestinal fatty acid binding protein) AFDGTWKVDRNENYEKFMEKMGINVVKRKLGAHDNLKLTITQEGNKFTVKESSNFRNIDVVFELGVDFAYSAADGTELTGTWTMEGNKLVGKFKRVDNGKELIYVREISGNELIQTYTYEGVEAKRIFKKE
[reply] 0.36
